Provenance of the data: patent US20160083436A1

# Assayed target: T1, murine serum albumin (murine, UniProt P07724 25-608)
# T1 construct: Bought from Sigma (A3559); also called mouse serum albumin; Mouse
# T1 sequence (P07724 25-608 limits assumed): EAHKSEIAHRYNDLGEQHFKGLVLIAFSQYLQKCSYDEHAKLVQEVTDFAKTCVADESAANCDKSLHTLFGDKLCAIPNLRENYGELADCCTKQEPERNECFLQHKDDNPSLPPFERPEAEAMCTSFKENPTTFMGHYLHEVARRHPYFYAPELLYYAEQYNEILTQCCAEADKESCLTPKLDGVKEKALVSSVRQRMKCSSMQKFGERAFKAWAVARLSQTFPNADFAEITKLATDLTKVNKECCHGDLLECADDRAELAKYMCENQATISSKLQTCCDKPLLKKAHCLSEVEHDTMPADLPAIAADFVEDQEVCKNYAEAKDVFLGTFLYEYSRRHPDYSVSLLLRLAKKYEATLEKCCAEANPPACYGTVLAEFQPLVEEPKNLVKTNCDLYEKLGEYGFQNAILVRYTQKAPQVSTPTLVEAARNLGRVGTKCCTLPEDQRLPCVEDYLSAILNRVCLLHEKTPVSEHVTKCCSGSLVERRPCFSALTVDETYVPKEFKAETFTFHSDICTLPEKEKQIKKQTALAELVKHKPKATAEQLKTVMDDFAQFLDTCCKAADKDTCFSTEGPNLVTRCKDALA
# Assay notes: SPR, same methods as Example 2
Recorded metric: Kd (nM)
Enter your answer as a number in nM; do not include the unit.

Can you share its Kd? I mean this binder: ABDCon12 (designed binder, also called ABDCon with N-terminal TIDEWL extension; not shown: N-terminal poly histidine tag) TIDEWLLKEAKEKAIEELKKAGITSDYYFDLINKAKTVEGVNALKDEILKA
8.2
